Source of measurements: patent US4613602A

Experiment: Acute toxicity (LD50) in mouse, Lichtfield and Wilcoxon
Settings: in vivo, oral administering, 14 days observation, read-out: DL50 (95 fiducial limits)
REPORTED ENDPOINT: LD50 at 336 h (mg/kg)
Answers are plain numbers, in mg/kg.

Batch: LD50 at 336 h for all items listed.
1. CNC(=C[N+](=O)[O-])NCCSCc1ccc(CN(C)C)o1
2. CN(C)Cc1ccc(CSCCNC(=C[N+](=O)[O-])N2CCN(C)CC2)o1

A)
1. 1700
2. 2610

---

Assay: Acute toxicity (LD50) in rat, Lichtfield and Wilcoxon
Conditions: in vivo, im, intramuscular administering, 14 days observation, read-out: DL50
REPORTED ENDPOINT: LD50 at 336 h (mg/kg)
Answers are plain numbers, in mg/kg.

{"ENTRY SMILES": "CNC(=C[N+](=O)[O-])NCCSCc1ccc(CN(C)C)o1", "LD50 at 336 h [mg/kg]": 2020}

Q) // returns reported LD50 at 336 h for input CN(C)Cc1ccc(CSCCNC(=C[N+](=O)[O-])N2CCN(C)CC2)o1
A) 2000
